Source: patent US3984548A

Test system: Pseudmonas aeruginosa
testMethodNotes: standard plate dilution method, Pseudomonas aeruginosa
Assay type: cell-based
Design: key: +: active; -: inactive
measurementSetup: agar plates, 1 to 100 milligrams/liter
propertyMeasured: Microorganism PA (growth inhibition)

Query block: # assay system Pseudmonas aeruginosa: give Microorganism PA (growth inhibition) of CCOC(=O)c1cn2c3c(c(C)cc(Cl)c3c1=O)OCC2C (stereo not shown) [Example 41 (ester)]
Result block: -

Query block: # assay system Pseudmonas aeruginosa: give Microorganism PA (growth inhibition) of CCOC(=O)c1cn2c3c(c(C)ccc3c1=O)OCC2C (stereo not shown) [Example 39 (ester)]
Result block: +

Query block: # assay system Pseudmonas aeruginosa: give Microorganism PA (growth inhibition) of CCOC(=O)c1cn2c3c(c(Cl)cc(C)c3c1=O)OCC2C (stereo not shown) [Example 37 (ester)]
Result block: -

Query block: # assay system Pseudmonas aeruginosa: give Microorganism PA (growth inhibition) of CCOC(=O)c1cn2c3c(ccc(F)c3c1=O)OCC2C (stereo not shown)
Result block: -

Query block: # assay system Pseudmonas aeruginosa: give Microorganism PA (growth inhibition) of CC1COc2cc(F)cc3c(=O)c(C(=O)O)cn1c23 (stereo not shown)
Result block: +

Query block: # assay system Pseudmonas aeruginosa: give Microorganism PA (growth inhibition) of CCOC(=O)c1cn2c3c(cc(C)cc3c1=O)OCC2C (stereo not shown)
Result block: -

Query block: # assay system Pseudmonas aeruginosa: give Microorganism PA (growth inhibition) of CCOC(=O)c1cn2c3c(c(C)cc(C)c3c1=O)OCC2C (stereo not shown) [Example 42 (ester)]
Result block: -

Query block: # assay system Pseudmonas aeruginosa: give Microorganism PA (growth inhibition) of Cc1ccc2c3c1c(=O)c(C(=O)O)cn3C(C)CO2 (stereo not shown)
Result block: -

More entries:
Query block: # assay system Pseudmonas aeruginosa: give Microorganism PA (growth inhibition) of Cc1cc(Cl)c2c(=O)c(C(=O)O)cn3c2c1OCC3C (stereo not shown)
Result block: -

Query block: # assay system Pseudmonas aeruginosa: give Microorganism PA (growth inhibition) of CCOC(=O)c1cn2c3c(cc(F)cc3c1=O)OCC2C (stereo not shown)
Result block: +

---

System: Pseudmonas aeruginosa
testMethodNotes: standard plate dilution method, Pseudomonas aeruginosa
Type: cell-based
Parameters: key: +: active; -: inactive
measurementSetup: agar plates, 1 to 100 milligrams/liter
propertyMeasured: Microorganism PA (growth inhibition)

Completed entries (count: 8):
Query block: Using known records, supply Microorganism PA (growth inhibition) for CC1COc2cccc3c(=O)c(C(=O)O)cn1c23 (stereo not drawn) [Example 19]
Result block: -

Query block: Using known records, supply Microorganism PA (growth inhibition) for CC1COc2ccc(F)c3c(=O)c(C(=O)O)cn1c23 (stereo not drawn) [Example 25]
Result block: -

Query block: Using known records, supply Microorganism PA (growth inhibition) for COc1cc2c3c(c1)c(=O)c(C(=O)O)cn3C(C)CO2 (stereo not drawn) [Example 20]
Result block: -

Query block: Using known records, supply Microorganism PA (growth inhibition) for CC1COc2ccc([N+](=O)[O-])c3c(=O)c(C(=O)O)cn1c23 (stereo not drawn) [Example 44]
Result block: -

Query block: Using known records, supply Microorganism PA (growth inhibition) for CC1COc2c(Cl)cc([N+](=O)[O-])c3c(=O)c(C(=O)O)cn1c23 (stereo not drawn) [Example 38 (acid)]
Result block: -

Query block: Using known records, supply Microorganism PA (growth inhibition) for Cc1ccc2c(=O)c(C(=O)O)cn3c2c1OCC3C (stereo not drawn) [Example 39 (acid)]
Result block: +

Query block: Using known records, supply Microorganism PA (growth inhibition) for Cc1cc2c3c(c1C)c(=O)c(C(=O)O)cn3C(C)CO2 (stereo not drawn) [Example 40 (acid)]
Result block: +

Query block: Using known records, supply Microorganism PA (growth inhibition) for CCOC(=O)c1cn2c3c(cc(Cl)cc3c1=O)OCC2C (stereo not drawn) [Example 4]
Result block: -

More entries:
Query block: Using known records, supply Microorganism PA (growth inhibition) for O=C(O)c1cn2c3c(cc(F)cc3c1=O)OCC2 [Example 43 (acid)]
Result block: -
